All figures here come from PubChem BioAssay (EPA / NIEHS).

Read-out: Tumor necrosis factor (Homo sapiens)
Assay: BSK_LPS_TNFa: BioMAP Diversity Plus: LPS Assay for Tumour Necrosis Factor alpha (TNFa) Biomarker Activity (AID 2283085)
Conditions: primary human HUVEC with PBMC; actives raise or lower the signal
Active and inactive are the calls of the source. Rule for the calls: active = hit-call score of the fitted dose curve at least 0.9, where 1 is the maximum; inactive = score below 0.9.
Pick one: active, inactive

Consider the following illustrative entries.
COMPOUND	CLASS_ASSIGNMENT
C[C@@H](Oc1ccc(CNC(=O)c2cccnc2Oc2ccc3c(c2)OCO3)c(F)c1)C(=O)O	active
CCn1nc(C)c2c1C(=O)NCC(c1ccc(O)cc1)=N2	active
CCCCCCCCN(C)C	inactive
CCCc1ccccc1	inactive
OCC(CO)(CO)CO	inactive

In: Lab log entry: "S=P(N1CC1)(N1CC1)N1CC1" — outcome as called in the assay?
Out: inactive

In: Lab log entry: CCCCCCCC1CCC(=O)O1 (configuration not stated) — outcome as called in the assay?
Out: inactive

---

Read-out: Alpha-fetoprotein (AFP) gene, AFP (gene 174)
Assay: LTEA_HepaRG_AFP: Life Technologies and Expression Analysis (LTEA) Assay for Alpha-fetoprotein (AFP) gene using HepaRG (AID 2283472)
Details: mRNA level, 48 h; actives raise or lower the signal
The source made the active and inactive calls. How the source made its calls: active means hit-call score of the fitted dose curve at least 0.9, where 1 is the maximum; inactive means score below 0.9.
Pick one: active, inactive

Consider the following illustrative entries.
CCCCCCCCCC inactive
CCOc1ccc2[nH]cc(C(=O)NCc3ccccc3)c(=O)c2n1 active
CC(C)C(=O)Nc1ccc([N+](=O)[O-])c(C(F)(F)F)c1 active

In: Lab log entry: "Cc1nccn1-c1ccc(Sc2cccc(C3(C(N)=O)CCOCC3)c2)cc1" — outcome as called in the assay?
Out: active

In: Lab log entry: "CCCCCOC(C)=O" — outcome as called in the assay?
Out: inactive

In: Lab log entry: "CCCc1ccccc1" — outcome as called in the assay?
Out: inactive

---

Assay: BSK_3C_SRB: Viability Assessment in the BioMAP Diversity Plus: 3C Assay (AID 2283023);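 note: cells read 24 h after compound dosing; fitted both ways against DMSO so a hit may be signal rise or drop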
Conditions: primary human endothelial cells (HUVEC)
Active and inactive are the calls of the source. How the source made its calls: active means hit-call score of the fitted dose curve at least 0.9, where 1 is the maximum; inactive means score below 0.9.
READOUT_LABEL: outcome

O=S(=O)(O)CCC(F)(F)C(F)(F)C(F)(F)C(F)(F)C(F)(F)C(F)(F)F inactive
S=P(N1CC1)(N1CC1)N1CC1 inactive
FC(F)=C(F)C(F)(F)C(F)(F)C(F)(F)C(F)(F)C(F)(F)C(F)(F)F inactive

---

Read-out: solute carrier (SLCO1B1), SLCO1B1 (gene 10599)
Experiment: LTEA_HepaRG_SLCO1B1: Life Technologies and Expression Analysis (LTEA) Assay for solute carrier (SLCO1B1) using HepaRG (AID 2283530)
Details: mRNA level, 48 h; actives raise or lower the signal
Procedure: LTEA_HepaRG is a cell based, multiplexed-readout assay that uses HepaRG, a human liver cell line, with measurements taken at 48 hours after chemical dosing on a 96-well plate.LTEA_HepaRG_SLCO1B1 is one of 102 assay component(s) measured in the LTEA HepaRG cell culture assay. It is a marker of NR mediated transport.Data from the assay component LTEA_HepaRG_SLCO1B1 was analyzed into 1 endpoint. […]
Active and inactive are the calls of the source. How the source made its calls: active means hit-call score of the fitted dose curve at least 0.9, where 1 is the maximum; inactive means score below 0.9.
Pick one: active, inactive

In: Lab log entry: "CC(=O)c1ccccc1" — outcome as called in the assay?
Out: inactive

In: Lab log entry: "O=C(O)[C@H](O)[C@@H](O)C(=O)O" — outcome as called in the assay?
Out: inactive

In: Lab log entry: "CC(C)c1nnc2ccc(-c3ocnc3-c3cc(F)ccc3F)cn12" — outcome as called in the assay?
Out: active
